- Tgt: human TREM2/DAP12 fusion protein (human, UniProt O43914 41-113, limits assumed)
- Sequence (O43914 other isoform, or with tags, fused parts or gaps limits assumed): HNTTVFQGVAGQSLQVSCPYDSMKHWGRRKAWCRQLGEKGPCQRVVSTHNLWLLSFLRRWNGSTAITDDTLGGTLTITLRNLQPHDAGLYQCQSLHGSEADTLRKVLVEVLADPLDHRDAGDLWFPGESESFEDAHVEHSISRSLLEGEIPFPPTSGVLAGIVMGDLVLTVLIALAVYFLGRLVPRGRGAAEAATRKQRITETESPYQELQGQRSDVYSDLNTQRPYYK
- Experiment summary: cell-based or functional assay
Exercise: for every item that follows, state its recorded luciferase activation, soluble IgG, EC50.
Give bare numbers, in nM.

Answered examples (3):
- Binder: "AL2p-31 (antibody, V domains shown, Fab and IgG formats under one id) VH: QVQLVQSGAEVKKPGSSVKVSCKASGYAFSSQWMNWVRQAPGQGLEWMGRIYPGGGDTNYARKFQGRVTITADESTSTAYMELSSLRSEDTAVYYCARLLRNQPGESYAMDYWGQGTLVTVSS VL: GVVMTQTPLSLSVTPGQPASISCRSSQSLVHSNGYTYLHWYLQKPGQSPQLLIYKVSNRRSGVPDRFSGSGSGTDFTLKISRVEAEDVGVYYCSQSTRVPYTFGQGTKLEIK"
  luciferase activation, soluble IgG, EC50 [nM]: 1.14
- Binder: "AL2p-58 (antibody, V domains shown, Fab and IgG formats under one id (explicit huIgG1 is m95, PSEG is m96)) VH: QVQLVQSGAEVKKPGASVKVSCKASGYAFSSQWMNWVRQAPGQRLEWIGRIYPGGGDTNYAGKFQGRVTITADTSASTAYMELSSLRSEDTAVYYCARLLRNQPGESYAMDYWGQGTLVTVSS VL: DVVMTQSPDSLAVSLGERATINCRSSQSLVHSNRYTYLHWYQQKPGQSPKLLIYKVSNRFSGVPDRFSGSGSGTDFTLKISRVEAEDVGVYYCSQSTRVPYTFGQGTKLEIK"
  luciferase activation, soluble IgG, EC50 [nM]: 14
- Binder: "AL2p (parental mouse anti-TREM2 antibody) (antibody, V domains shown, Parental mouse antibody; Fab and IgG formats under one id; also called 9F5; 9F5a) VH: QVQLQQSGPELVKPGASLKISCKASGYAFSSSWMNWVKQRPGKGLEWIGRIYPGDGDTNYNGEFRVRATLTADTSSTTAYMQLSSLTSEDSAVYFCARLLRNQPGESYAMDYWGQGASVTVSS VL: DVVMTQTPLSLPVSLGDQASISCRSSQSLVHSNGYTYLHWYLQKPGQSPKLLIYKVSNRFSGVPDRFSGSGSGTDFTLKISRVEADDLGVYFCSQSTRVPYTFGGGTKLEIK"
  luciferase activation, soluble IgG, EC50 [nM]: 19.3

We now examine a further binder.
Exercise: Request the reported luciferase activation, soluble IgG, EC50 associated with AL2p-47 (antibody, V domains shown, Fab and IgG formats under one id (explicit huIgG1 is m97); also called AL2-47) VH: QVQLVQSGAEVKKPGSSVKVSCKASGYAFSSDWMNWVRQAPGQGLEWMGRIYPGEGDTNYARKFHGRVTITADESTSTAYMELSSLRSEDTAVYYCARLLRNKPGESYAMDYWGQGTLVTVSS VL: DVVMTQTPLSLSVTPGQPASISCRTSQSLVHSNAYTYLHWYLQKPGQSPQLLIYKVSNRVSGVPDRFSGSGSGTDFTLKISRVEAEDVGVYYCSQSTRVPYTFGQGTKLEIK
Key: 104
